test: Protein binding in rat plasma at 200 to 1000 ng/ml measured after 15 mins by UC-LC/MS/MS analysis; assay type: ADME, cell-free; details: read-out: PPB (converted)
Numbered stars: 1 amine (or outer) side, 2 acyl side, 3 side chain; on linkers, the order of the positions; unused ones are H or OH. Bridge positions count the residues as written; N and C are the ends. Square brackets hold non-standard residues; d marks the D form. Peptide text beside a SMILES is read from it. * marks the point of attachment. Phe(4-Cl) = N[C@@H](Cc1ccc(Cl)cc1)C(=O)O; 2Thi = N[C@@H](Cc1cccs1)C(=O)O; X2 = N=C(N)NCCC[C@H](CO)N*; Agmatine = N=C(N)NCCCCN*; X1 = O=C(CCC[*:2])[*:1]; Mpa = O=C(O)CCS
MEASURED ATTRIBUTE: fraction unbound at […]

>  <COMPOUND>
CCNC(=O)[C@@H](CCCNC(=N)N)NC(=O)[C@@H]1CCCN1C(=O)[C@@H]1CSCCCC(=O)N[C@@H](Cc2ccc(Cl)cc2)C(=O)N[C@@H](Cc2cccs2)C(=O)N[C@@H](C(C)C)C(=O)N[C@@H](CC(N)=O)C(=O)N1

>  <fraction unbound at […]>
0.16

$$$$

(a) NC(=O)CC[C@@H]1NC(=O)[C@H](Cc2ccccc2)NC(=O)[C@H](Cc2ccc(O)cc2)NC(=O)CCSSC[C@@H](C(=O)N2CCC[C@H]2C(=O)N[C@H](CCCN=C(N)N)C(=O)NCC(N)=O)NC(=O)[C@H](CC(N)=O)NC1=O
(b) CC(C)[C@@H]1NC(=O)[C@H](Cc2cccs2)NC(=O)[C@H](Cc2ccc(Cl)cc2)NC(=O)CCCSC[C@@H](C(=O)N2CCC[C@H]2C(=O)NCCCCNC(=N)N)NC(=O)[C@H](CC(N)=O)NC1=O ([Phe(4-Cl)][2Thi]VNCP-Agmatine; linker N-5 via X1)
In terms of reported fraction unbound at […], does a or b have the smaller number? Mark your answer with the label of the selected entry. b

(I) CC(C)[C@@H]1NC(=O)[C@H](Cc2cccs2)NC(=O)[C@H](Cc2ccc(Cl)cc2)NC(=O)CCCSC[C@@H](C(=O)N2CCC[C@H]2C(=O)N[C@@H](CO)CCCNC(=N)N)NC(=O)[C@H](CC(N)=O)NC1=O ([Phe(4-Cl)][2Thi]VNCP-X2; linker N-5 via X1)
(II) CC(C)[C@@H]1NC(=O)[C@H](Cc2ccccc2)NC(=O)[C@H](Cc2ccc(O)cc2)NC(=O)CCSSC[C@@H](C(=O)N2CCC[C@H]2C(=O)N[C@H](CCCNC(=N)N)C(=O)NCC(N)=O)NC(=O)[C@H](CC(N)=O)NC1=O ([Mpa]YFVNCP[dR]G-NH2; disulfide 1-6)
Decide: I or II , by lowest recorded fraction unbound at […]. Answer format: the label of the selected item. I

###

assay: Clearance in Sprague-Dawley rat at 0.1 mg/kg, iv administered as cassette dose by LC-MS/MS analysis; format: ADME, organism-based; conditions: in vivo
Numbered stars: 1 amine (or outer) side, 2 acyl side, 3 side chain; on linkers, the order of the positions; unused ones are H or OH. Bridge positions count the residues as written; N and C are the ends. Square brackets hold non-standard residues; d marks the D form. Peptide text beside a SMILES is read from it. * marks the point of attachment. Phe(4-Cl) = N[C@@H](Cc1ccc(Cl)cc1)C(=O)O; Phe(4-F) = N[C@@H](Cc1ccc(F)cc1)C(=O)O; 2Thi = N[C@@H](Cc1cccs1)C(=O)O; X2 = N=C(N)NCCC[C@H](CO)N*; hCys = N[C@@H](CCS)C(=O)O; Agmatine = N=C(N)NCCCCN*; Thz = O=C(O)[C@@H]1CSCN1; X1 = O=C(CCC[*:2])[*:1]; X3 = O=C(CC[*:2])[*:1]; NH(CH2)4NH2 = NCCCCN*
MEASURED ATTRIBUTE: clearance (mL/min/kg)

# example entries with known answers
>  <COMPOUND>
CC(C)[C@@H]1NC(=O)[C@H](Cc2cccs2)NC(=O)[C@H](Cc2ccc(Cl)cc2)NC(=O)CCSCC[C@@H](C(=O)N2CCC[C@H]2C(=O)N[C@@H](CO)CCCNC(=N)N)NC(=O)[C@H](CC(N)=O)NC1=O ([Phe(4-Cl)][2Thi]VN[hCys]P-X2; linker N-5 via X3)

>  <UNIT STRING>
mL/min/kg

>  <ASSAY VALUE>
2.8

$$$$
>  <COMPOUND>
CCNC(=O)[C@@H](CCCNC(=N)N)NC(=O)[C@@H]1CCCN1C(=O)[C@@H]1CSCCCC(=O)N[C@@H](Cc2ccc(Cl)cc2)C(=O)N[C@@H](Cc2cccs2)C(=O)N[C@@H](C(C)C)C(=O)N[C@@H](CC(N)=O)C(=O)N1

>  <UNIT STRING>
mL/min/kg

>  <ASSAY VALUE>
10

$$$$
>  <COMPOUND>
CCNC(=O)[C@@H](CCCNC(=N)N)NC(=O)[C@@H]1CSCN1C(=O)[C@@H]1CCSCCC(=O)N[C@@H](Cc2ccc(Cl)cc2)C(=O)N[C@@H](Cc2cccs2)C(=O)N[C@@H](C(C)C)C(=O)N[C@@H](CC(N)=O)C(=O)N1

>  <UNIT STRING>
mL/min/kg

>  <ASSAY VALUE>
11

$$$$
>  <COMPOUND>
CC(C)[C@@H]1NC(=O)[C@H](Cc2cccs2)NC(=O)[C@H](Cc2ccc(Cl)cc2)NC(=O)CCCSC[C@@H](C(=O)N2CSC[C@H]2C(=O)NCCCCNC(=N)N)NC(=O)[C@H](CC(N)=O)NC1=O ([Phe(4-Cl)][2Thi]VNC[Thz]-Agmatine; linker N-5 via X1)

>  <UNIT STRING>
mL/min/kg

>  <ASSAY VALUE>
16

$$$$
>  <COMPOUND>
CC(C)[C@@H]1NC(=O)[C@H](Cc2cccs2)NC(=O)[C@H](Cc2ccc(Cl)cc2)NC(=O)CCCSC[C@@H](C(=O)N2CCC[C@H]2C(=O)NCCCCNC(=N)N)NC(=O)[C@H](CC(N)=O)NC1=O ([Phe(4-Cl)][2Thi]VNCP-Agmatine; linker N-5 via X1)

>  <UNIT STRING>
mL/min/kg

>  <ASSAY VALUE>
14

$$$$
>  <COMPOUND>
CC(C)[C@@H]1NC(=O)[C@H](Cc2ccc(F)cc2)NC(=O)[C@H](Cc2ccc(O)cc2)NC(=O)CCCSC[C@@H](C(=O)N2CCC[C@H]2C(=O)NCCCCNC(=N)N)NC(=O)[C@H](CC(N)=O)NC1=O (Y[Phe(4-F)]VNCP-Agmatine; linker N-5 via X1)

>  <UNIT STRING>
mL/min/kg

>  <ASSAY VALUE>
8.7

$$$$
>  <COMPOUND>
CC(C)[C@@H]1NC(=O)[C@H](Cc2cccs2)NC(=O)[C@H](Cc2ccc(O)cc2)NC(=O)CCCSC[C@@H](C(=O)N2CCC[C@H]2C(=O)NCCCCN)NC(=O)[C@H](CC(N)=O)NC1=O (Y[2Thi]VNCP-{NH(CH2)4NH2}; linker N-5 via X1)

>  <UNIT STRING>
mL/min/kg

>  <ASSAY VALUE>
7.2

$$$$
>  <COMPOUND>
CC(C)[C@@H]1NC(=O)[C@H](Cc2cccs2)NC(=O)[C@H](Cc2ccc(Cl)cc2)NC(=O)CCCSC[C@@H](C(=O)N2CCC[C@H]2C(=O)N[C@H](CCCNC(=N)N)C(=O)NC2CC2)NC(=O)[C@H](CC(N)=O)NC1=O

>  <UNIT STRING>
mL/min/kg

>  <ASSAY VALUE>
10

$$$$
>  <COMPOUND>
CC(C)[C@@H]1NC(=O)[C@H](Cc2ccc(F)cc2)NC(=O)[C@H](Cc2ccc(Cl)cc2)NC(=O)CCCSC[C@@H](C(=O)N2CSC[C@H]2C(=O)NCCCCNC(=N)N)NC(=O)[C@H](CC(N)=O)NC1=O ([Phe(4-Cl)][Phe(4-F)]VNC[Thz]-Agmatine; linker N-5 via X1)

>  <UNIT STRING>
mL/min/kg

>  <ASSAY VALUE>
9.9

$$$$
>  <COMPOUND>
CC(C)CNC(=O)[C@@H](CCCNC(=N)N)NC(=O)[C@@H]1CCCN1C(=O)[C@@H]1CCSCCC(=O)N[C@@H](Cc2ccc(Cl)cc2)C(=O)N[C@@H](Cc2ccccc2)C(=O)N[C@@H](C(C)C)C(=O)N[C@@H](CC(N)=O)C(=O)N1

>  <UNIT STRING>
mL/min/kg

>  <ASSAY VALUE>
5.4

$$$$

(I) CC(C)CNC(=O)[C@@H](CCCNC(=N)N)NC(=O)[C@@H]1C[C@@H](O)CN1C(=O)[C@@H]1CCSCCC(=O)N[C@@H](Cc2ccc(Cl)cc2)C(=O)N[C@@H](Cc2cccs2)C(=O)N[C@@H](C(C)C)C(=O)N[C@@H](CC(N)=O)C(=O)N1
(II) CC(C)[C@@H]1NC(=O)[C@H](Cc2cccs2)NC(=O)[C@H](Cc2ccc(O)cc2)NC(=O)CCCSC[C@@H](C(=O)N2CCC[C@H]2C(=O)N[C@H](CCCNC(=N)N)C(=O)NCc2ccccc2)NC(=O)[C@H](CC(N)=O)NC1=O
(III) CCNC(=O)[C@@H](CCCNC(=N)N)NC(=O)[C@@H]1CSCN1C(=O)[C@@H]1CSCCCC(=O)N[C@@H](Cc2ccc(Cl)cc2)C(=O)N[C@@H](Cc2cccs2)C(=O)N[C@@H](C(C)C)C(=O)N[C@@H](CC(N)=O)C(=O)N1
Arrange items by their clearance values in increasing order. Put the labels in the requested order and list them out. I, II, III
(I: 5.9 mL/min/kg, II: 14 mL/min/kg, III: 28 mL/min/kg)
